target: P. falciparum apicoplast DNA polymerase (Pf-apPOL) (Plasmodium falciparum); assay: Fluorescence-based high-throughput DNA polymerase assay (molecular beacon), primary screen and dose-response; assay type: biochemical; settings: DRC-1; read at 10'; concentration 20
Sequence (Q8ILY1 entry or part of it): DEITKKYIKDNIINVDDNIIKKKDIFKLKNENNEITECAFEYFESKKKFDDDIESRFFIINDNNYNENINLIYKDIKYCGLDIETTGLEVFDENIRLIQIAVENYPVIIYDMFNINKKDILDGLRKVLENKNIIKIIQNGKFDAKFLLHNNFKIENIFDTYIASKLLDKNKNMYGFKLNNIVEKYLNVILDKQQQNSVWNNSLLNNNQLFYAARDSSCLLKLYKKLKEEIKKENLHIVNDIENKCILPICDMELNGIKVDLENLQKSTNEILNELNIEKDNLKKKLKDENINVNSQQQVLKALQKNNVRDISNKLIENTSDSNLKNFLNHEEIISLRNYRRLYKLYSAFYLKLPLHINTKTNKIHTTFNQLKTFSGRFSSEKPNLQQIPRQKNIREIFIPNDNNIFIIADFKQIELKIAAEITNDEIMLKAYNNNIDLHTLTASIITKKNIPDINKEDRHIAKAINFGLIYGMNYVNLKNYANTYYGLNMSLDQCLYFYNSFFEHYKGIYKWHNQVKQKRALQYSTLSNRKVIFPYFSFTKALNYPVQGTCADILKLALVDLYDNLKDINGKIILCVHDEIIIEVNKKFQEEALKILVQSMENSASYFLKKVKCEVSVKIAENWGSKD
QUANTITY MEASURED: % inhibition Apo pol 10' 20
Just so you know, I need the unit written after the number.

[[record]]
molecule = "O=C1CSC2=NC3=C(CCc4ccccc43)C(c3cccs3)N12 (stereo not drawn)"
tested_target = "P. falciparum apicoplast DNA polymerase (Pf-apPOL) (Plasmodium falciparum)"
test_value = "53.1812%"


Hi team, please reply with % inhibition Apo pol 10' 20 for each item in this list.
1. Cc1ccsc1Cn1c(C)ccc1C
2. Cc1cc2[nH]c(C(=O)Nc3ccc(F)cc3)c(CN3CCOCC3)c2s1

result:
37.488%
44.6815%
